Cited source: ChEMBL document CHEMBL3872285

Target: Phosphatidylinositol 4,5-bisphosphate 3-kinase catalytic subunit delta isoform (Homo sapiens)
Sequence (O00329 whole entry): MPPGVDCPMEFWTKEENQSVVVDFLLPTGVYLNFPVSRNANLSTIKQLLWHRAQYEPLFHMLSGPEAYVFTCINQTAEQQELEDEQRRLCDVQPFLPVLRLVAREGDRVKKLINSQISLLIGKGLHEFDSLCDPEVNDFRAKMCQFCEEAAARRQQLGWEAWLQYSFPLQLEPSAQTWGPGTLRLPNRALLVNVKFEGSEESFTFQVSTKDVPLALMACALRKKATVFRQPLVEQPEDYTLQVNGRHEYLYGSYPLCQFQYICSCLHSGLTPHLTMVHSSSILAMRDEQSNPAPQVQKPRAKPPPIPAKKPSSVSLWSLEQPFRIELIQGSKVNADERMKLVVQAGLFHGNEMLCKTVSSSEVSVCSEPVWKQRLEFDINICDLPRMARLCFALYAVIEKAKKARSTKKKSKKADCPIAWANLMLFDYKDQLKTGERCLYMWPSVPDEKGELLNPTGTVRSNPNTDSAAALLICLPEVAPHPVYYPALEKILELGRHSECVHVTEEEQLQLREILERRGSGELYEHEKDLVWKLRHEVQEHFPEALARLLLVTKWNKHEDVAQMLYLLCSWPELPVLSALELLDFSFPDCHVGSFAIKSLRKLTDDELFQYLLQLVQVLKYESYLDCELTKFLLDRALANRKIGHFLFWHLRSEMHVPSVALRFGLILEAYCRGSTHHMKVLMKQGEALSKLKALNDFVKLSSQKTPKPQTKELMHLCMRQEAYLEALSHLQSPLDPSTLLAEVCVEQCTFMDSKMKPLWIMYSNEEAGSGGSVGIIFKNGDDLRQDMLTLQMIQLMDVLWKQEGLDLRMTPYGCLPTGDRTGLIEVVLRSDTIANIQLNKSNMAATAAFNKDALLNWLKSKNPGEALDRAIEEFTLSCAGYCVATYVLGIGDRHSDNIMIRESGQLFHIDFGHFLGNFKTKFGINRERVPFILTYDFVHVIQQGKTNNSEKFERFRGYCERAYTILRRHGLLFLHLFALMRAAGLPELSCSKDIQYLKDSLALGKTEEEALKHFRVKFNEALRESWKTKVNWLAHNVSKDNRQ
Assay: Inhibition of PI3Kdelta in human THP1 cells assessed as reduction in MCSF-stimulated akt phosphorylation at Thr308 preincubated for 30 mins followed by MCSF stimulation for 3 mins by ELISA
Assay type: cell-based, THP-1
List of IC50 values.
Kindly answer with a numeric value in µM, unit omitted.

Worked cases, IC50 given:
N#Cc1c(N)ncnc1NC(CO)c1nn2cccc2c(=O)n1-c1ccccc1 (single isomer, unassigned) :: 0.051
C[C@H](Nc1ncnc2[nH]ccc12)c1nn2cccc2c(=O)n1-c1ccccc1 :: 0.15
C[C@H](Nc1ncnc(N)c1C#N)c1nn2c(C(F)(F)F)ccc2c(=O)n1-c1ccccc1 :: 0.38

Now consider a different compound.
Dear colleague, I am looking for the recorded IC50 of the following compound: `C[C@H](Nc1ncnc(N)c1F)c1nn2cccc2c(=O)n1-c1ccccc1`
0.21

---

Experiment: Drug metabolism in human liver microsomes assessed as disappearance of parent compound at 5 uM after 30 mins in presence of NADPH by UPLC-MS/MS analysis
measurement.name: metabolised at 0.5 h, 5 µM (%)
Kindly answer with a numeric value in %, unit omitted.

Worked cases, metabolised at 0.5 h, 5 µM given:
C[C@H](Nc1ncnc2[nH]cnc12)c1nn2cccc2c(=O)n1-c1ccccc1 :: 30
C[C@H](Nc1ccnc2ccnn12)c1nn2cccc2c(=O)n1-c1ccccc1 :: 86
C[C@H](Nc1nc(N)nc2[nH]cnc12)c1nn2cccc2c(=O)n1-c1ccccc1 :: 26

Dear colleague, I am looking for the recorded metabolised at 0.5 h, 5 µM of the following compound: `C[C@H](Nc1ncnc(N)c1C#N)c1nn2ccc(CO)c2c(=O)n1-c1ccccc1`
23

Dear colleague, I am looking for the recorded metabolised at 0.5 h, 5 µM of the following compound: `C[C@H](Nc1ncnc(N)c1C#N)c1nn2cc(F)cc2c(=O)n1-c1ccccc1`
34
